Biological target: DNA dC->dU-editing enzyme APOBEC-3A (Homo sapiens)
Experiment: blockers of A3A cytidine deamination on DNA – biochemical, FAM/TAMRA oligo cleavage fluorescence, selectivity assay for APOBEC3G inhibitor project, primary screen (AID 493011);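 note: plate controls were A3A with DMSO for no effect and wells lacking A3A enzyme for full effect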
Details: recombinant A3A, FAM/TAMRA ssDNA deamination fluorescence; at 20 µM; hits give high values
Out of some 330,000 compounds screened, about 1,400 (0.42%) were called active. The sample holds actives, similar compounds and a random draw of the others, so the mix is not that of the screen.
quantity-kind: inhibition

1. CCCc1cc(=O)[nH]c(SCc2ccc(C#N)cc2)n1 ... -3.79% (inactive)
2. COc1c(C(=O)N2CCCC2)ccc2ccccc12 ... 1.55% (inactive)
3. O=C(CN1CCN(S(=O)(=O)c2cc(Cl)ccc2Cl)CC1)c1ccc(O)c(O)c1 ... -5.68% (inactive)
4. CCOc1ccc(S(=O)(=O)Nc2ccncc2)c(C)c1C ... -0.833% (inactive)
5. Cc1ccccc1NC(=O)CN1C(=O)N/C(=C\c2cccn2-c2cccc(C(=O)O)c2)C1=O ... 93.1% (inactive)
6. O=C1C2C3C=CC(C4CC34)C2C(=O)N1c1nccs1 (stereo not given) ... 0.014% (inactive)
7. c1ccc(C(c2ccccc2)N2CCN(Cc3nnnn3C3CCCCC3)CC2)cc1 ... -5.77% (inactive)
8. NC(=O)c1ncc(C(F)(F)F)cc1Oc1ccc(F)cc1 ... 2.03% (inactive)
9. COc1ccc(C(=O)NC2(C(F)(F)F)NC(=O)N(CCCc3ccccc3)C2=O)c(OC)c1OC (stereo not given) ... 1.49% (inactive)
10. CC(=O)Nc1ccc(Nc2cc(C)nc(Nc3ccc(NC(C)=O)cc3)n2)cc1 ... 52.3% (active)
11. Cc1cc(=O)[nH]c(SCc2cc(Cl)ccc2OC(F)F)n1 ... -4.15% (inactive)
12. CC1(C)Oc2ccc3ccc(=O)oc3c2/C(=C/NCCO)C1=O ... 55.6% (active)
13. CC1(C)Oc2ccc3ccc(=O)oc3c2/C(=N/O)C1=O ... -5.21% (inactive)
14. CC(CC(=O)C1C(C)C=CCC1(C)C)NNC(N)=O (stereo not given) ... 0.901% (inactive)
15. CN1CCN(S(=O)(=O)c2cccc(C(=O)Nc3sccc3C#N)c2)CC1 ... 0.346% (inactive)
16. Cc1cccc(OCC(=O)NCCNC(=O)c2cccnc2)c1 ... -1.26% (inactive)
17. CCC(=O)Nc1ccc(Nc2nc(Cl)nc(Nc3ccc(NC(=O)CC)cc3)n2)cc1 ... -1.91% (inactive)
18. CC[n+]1c(C)n(-c2ccccc2)c2ccc(NC(C)=O)cc21 ... 60% (active)
19. CC1(C)CC(N2CCN(C(c3ccccc3)c3ccccc3)CC2)=CC(=[N+]2CCCCC2)C1 ... 57.4% (active)
20. O=C1N/C(=C/c2cccn2-c2ccccc2)C(=O)N1c1cccc(Cl)c1 ... 0.178% (inactive)
21. CC1(C)CC(=O)C(N=Nc2ccc(S(=O)(=O)N3CCCCCC3)cc2)=C(O)C1 ... -0.085% (inactive)
22. COc1ccc(C(=O)NNc2cc(C)nc(NNC(=O)c3ccc(OC)cc3)n2)cc1 ... 1.15% (inactive)
23. O=C(Nc1ccc(Cl)cc1)Nc1ccc(Oc2cccnc2)nc1 ... -3.23% (inactive)
24. N#Cc1ncc(C(F)(F)F)cc1Oc1cccnc1 ... 60.4% (active)
25. CS(=O)(=O)c1ccc2c(c1)SC1=NC(=O)/C(=C/c3ccco3)C(=N)N12 ... 41.6% (active)
